- PROCEDURE TEXT: Cytotoxicity against human HL60 cells
- Type: functional, cell-based
- MEASUREMENT CONTEXT: HL-60
PROPERTY LABEL: IC50

Here are 3 molecules together with their reported answers.
MOLECULE SMILES	RESULT
COC(=O)CCCCCCCC(=O)N[C@]1(C)[C@@H]2CC[C@]3(C)[C@H](CC=C4[C@@H]5[C@@H](C)[C@H](C)CC[C@]5(C)CC[C@]43C)[C@@]2(C)CC[C@H]1OC(C)=O	> 20 µM
C[C@H]1[C@H](C)CC[C@]2(C)CC[C@]3(C)C(=CC(=O)[C@@H]4[C@@]5(C)CC[C@@H](O)[C@](C)(NC(=O)CCCCC(=O)O)[C@@H]5CC[C@]43C)[C@H]12	> 20 µM
C[C@H]1[C@H](C)CC[C@]2(C)CC[C@]3(C)C(=CC[C@@H]4[C@@]5(C)CC[C@@H](O)[C@](C)(NC(=O)CCCCCCC(=O)NO)[C@@H]5CC[C@]43C)[C@H]12	> 20 µM

Noted for `C[C@H]1[C@H](C)CC[C@]2(C)CC[C@]3(C)C(=CC[C@@H]4[C@@]5(C)CC[C@@H](O)[C@](C)(NC(=O)CCCCCCCC(=O)O)[C@@H]5CC[C@]43C)[C@H]12` : its IC50 reads > 20 µM

Data credit: ChEMBL document CHEMBL3351412
